- assayed-target: Cyclin-dependent kinase 4/cyclin D1 (Homo sapiens, UniProt P11802)
- Sequence (P11802 whole entry, one chain of several, the tested form may be a part): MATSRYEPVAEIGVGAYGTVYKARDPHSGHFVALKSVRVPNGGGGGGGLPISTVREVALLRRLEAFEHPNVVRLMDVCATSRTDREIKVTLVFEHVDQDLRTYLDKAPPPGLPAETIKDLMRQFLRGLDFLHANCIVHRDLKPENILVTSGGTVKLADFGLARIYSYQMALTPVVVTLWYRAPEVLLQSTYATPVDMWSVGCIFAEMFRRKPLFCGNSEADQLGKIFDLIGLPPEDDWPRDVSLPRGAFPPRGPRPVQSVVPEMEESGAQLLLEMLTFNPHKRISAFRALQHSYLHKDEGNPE
- method: Inhibition of recombinant human N-terminal GST-tagged CDK4 (S4 to E303 residues)/CyclinD1 (Q4 to I295 residues) expressed in Sf9 insect cells
readout: IC50
Show the value, then the unit it is measured in.

Q: Quickly give me recorded IC50 for CC(C)c1n[nH]c2c(NCc3ccccc3)nc(NC3CCC(N)CC3)nc12 (stereo unspecified)
A: 6.6 µM

---

Listed here: items and their measured IC50.
- assayed-target: CDK7/Cyclin H/MNAT1 (Homo sapiens, UniProt P50613)
- Sequence (P51946 whole entry, the tested form may be a part): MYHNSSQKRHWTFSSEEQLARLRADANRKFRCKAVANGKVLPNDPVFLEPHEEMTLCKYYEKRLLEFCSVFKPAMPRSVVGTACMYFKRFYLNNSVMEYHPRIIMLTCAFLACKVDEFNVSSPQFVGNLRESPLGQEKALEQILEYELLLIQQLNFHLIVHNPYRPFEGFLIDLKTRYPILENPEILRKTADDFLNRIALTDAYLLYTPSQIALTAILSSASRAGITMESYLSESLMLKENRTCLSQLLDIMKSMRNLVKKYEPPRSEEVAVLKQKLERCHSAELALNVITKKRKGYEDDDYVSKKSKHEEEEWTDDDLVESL
- Sequence (P50613 whole entry, the tested form may be a part): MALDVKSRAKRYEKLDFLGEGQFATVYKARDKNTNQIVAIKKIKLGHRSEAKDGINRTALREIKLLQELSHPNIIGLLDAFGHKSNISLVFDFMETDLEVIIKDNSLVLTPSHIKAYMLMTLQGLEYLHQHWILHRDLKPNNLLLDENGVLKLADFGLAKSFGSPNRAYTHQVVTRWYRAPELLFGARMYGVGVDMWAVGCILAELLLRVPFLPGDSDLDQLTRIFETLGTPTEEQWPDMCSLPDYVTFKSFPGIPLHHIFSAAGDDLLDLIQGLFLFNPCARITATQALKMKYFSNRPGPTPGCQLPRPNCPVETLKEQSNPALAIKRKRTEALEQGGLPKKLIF
- Sequence (P51948 whole entry, further chain, the tested form may be a part): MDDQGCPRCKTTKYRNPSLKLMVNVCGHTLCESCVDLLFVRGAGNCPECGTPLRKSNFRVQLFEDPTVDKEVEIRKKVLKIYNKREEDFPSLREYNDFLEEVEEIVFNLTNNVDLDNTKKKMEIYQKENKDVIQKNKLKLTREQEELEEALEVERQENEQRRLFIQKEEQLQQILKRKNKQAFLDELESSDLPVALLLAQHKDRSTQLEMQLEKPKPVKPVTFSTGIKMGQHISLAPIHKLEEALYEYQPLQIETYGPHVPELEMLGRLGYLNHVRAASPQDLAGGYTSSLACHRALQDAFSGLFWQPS
- method: Inhibition of recombinant human full length N-terminal GST/His6-tagged CDK7 (M1 to F346 residues)/N-terminal His6-tagged CyclinH (M1 to L323 residues)/N-terminal His6-tagged MAT1 (M1 to S306 residues) expressed in Sf9 insect cells

CC(C)c1n[nH]c2c(NCc3ccccc3)nc(NC3CCC(N)CC3)nc12 (configuration not stated) = > 100 µM

Q: Quickly give me recorded IC50 for CC(C)c1n[nH]c2c(NCc3ccccc3)nc(NC3CCCCC3N)nc12 (configuration not stated)
A: > 100 µM

---

- assayed-target: CDK6/cyclin D1 (Homo sapiens, UniProt Q00534)
- Sequence (P24385 whole entry, the tested form may be a part): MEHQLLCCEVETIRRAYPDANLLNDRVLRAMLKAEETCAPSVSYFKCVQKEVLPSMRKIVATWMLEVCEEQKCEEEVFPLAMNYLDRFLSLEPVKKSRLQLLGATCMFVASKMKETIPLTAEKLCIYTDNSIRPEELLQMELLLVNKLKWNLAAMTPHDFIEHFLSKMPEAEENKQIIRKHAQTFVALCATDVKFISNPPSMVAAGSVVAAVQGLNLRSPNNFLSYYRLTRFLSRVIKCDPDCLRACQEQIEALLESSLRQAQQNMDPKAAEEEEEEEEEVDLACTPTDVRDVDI
- Sequence (Q00534 whole entry, the tested form may be a part): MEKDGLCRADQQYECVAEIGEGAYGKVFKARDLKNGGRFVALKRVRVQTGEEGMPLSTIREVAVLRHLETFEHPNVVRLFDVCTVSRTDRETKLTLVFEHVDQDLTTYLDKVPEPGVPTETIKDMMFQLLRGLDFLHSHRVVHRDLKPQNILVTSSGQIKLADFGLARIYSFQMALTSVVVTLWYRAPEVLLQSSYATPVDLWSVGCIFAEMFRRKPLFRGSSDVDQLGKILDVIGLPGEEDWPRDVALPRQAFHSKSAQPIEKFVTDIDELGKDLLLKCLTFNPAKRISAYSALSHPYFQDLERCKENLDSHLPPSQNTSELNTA
- method: Inhibition of recombinant human full length N-terminal GST-tagged CDK6 (M1 to A326 residues)/CyclinD1 (Q4 to I295 residues) expressed in Sf9 insect cells
readout: IC50

Q: Check CDK6/cyclin D1 (Homo sapiens, UniProt Q00534) data and give IC50 for CC(C)c1n[nH]c2c(NCc3ccccc3)nc(NC3CCCCC3N)nc12 (stereo unspecified) .
A: > 100 µM

---

- assayed-target: Cyclin-dependent kinase 2/cyclin E1 (Homo sapiens, UniProt P24941)
- method: Inhibition of recombinant human full length N-terminal GST-tagged CDK2 (M1 to L298 residues)/CyclinE1 (M1 to A395 residues) expressed in baculovirus infected Sf9 insect cells using histone H1 as substrate by [gamma33P]ATP-based assay
Listed here: items and their measured IC50.
Answer format: numeric, nM implied, no suffix.

Consider the following illustrative entries.
CC(C)c1n[nH]c2c(NCc3ccccc3N)nc(NC[C@@H](C)O)nc12 = 16.5
CC[C@H](CO)Nc1nc(NCc2ccccc2N)c2[nH]nc(C(C)C)c2n1 = 10.5

// switching to the query molecule
Q: Quickly give me recorded IC50 for `CC[C@@H](CO)Nc1nc(NCc2ccccc2N)c2[nH]nc(C(C)C)c2n1`
A: 15.3
